Endpoint Label: IC50

IN: // fetch IC50; item: "COc1ncc(F)cc1CNc1ccc(Cc2c[nH]c3ncc(C)cc23)c(F)n1" ; system: Serine/threonine-protein kinase Sgk1 (Homo sapiens, UniProt O00141)
Sequence (O00141 whole entry): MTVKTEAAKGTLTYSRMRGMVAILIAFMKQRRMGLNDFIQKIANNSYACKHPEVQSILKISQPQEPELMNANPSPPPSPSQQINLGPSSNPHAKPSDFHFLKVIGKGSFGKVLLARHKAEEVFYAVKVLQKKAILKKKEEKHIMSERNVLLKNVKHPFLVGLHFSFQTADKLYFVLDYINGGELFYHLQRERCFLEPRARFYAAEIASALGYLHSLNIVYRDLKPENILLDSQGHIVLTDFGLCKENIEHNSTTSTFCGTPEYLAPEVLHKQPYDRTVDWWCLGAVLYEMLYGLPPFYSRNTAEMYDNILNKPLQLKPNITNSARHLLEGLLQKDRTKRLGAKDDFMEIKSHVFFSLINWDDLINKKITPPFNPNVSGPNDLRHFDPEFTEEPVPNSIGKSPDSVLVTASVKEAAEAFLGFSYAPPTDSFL
OUT: > 1000 nM

----------
- Target Desc: Mitogen-activated protein kinase 12 (Homo sapiens, UniProt P53778)
- Sequence (P53778 whole entry): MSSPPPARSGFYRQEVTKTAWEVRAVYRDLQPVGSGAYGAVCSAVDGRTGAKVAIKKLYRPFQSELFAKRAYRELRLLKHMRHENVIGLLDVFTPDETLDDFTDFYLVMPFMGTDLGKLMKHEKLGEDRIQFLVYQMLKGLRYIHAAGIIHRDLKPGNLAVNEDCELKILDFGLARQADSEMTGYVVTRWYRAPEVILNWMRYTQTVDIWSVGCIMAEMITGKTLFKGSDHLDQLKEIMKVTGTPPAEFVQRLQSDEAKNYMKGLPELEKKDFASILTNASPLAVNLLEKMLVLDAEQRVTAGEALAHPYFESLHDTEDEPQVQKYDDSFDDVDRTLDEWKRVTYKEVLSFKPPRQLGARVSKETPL
- Experiment Notes: Inhibition of MAPK12 (unknown origin)
Endpoint Label: IC50

IN: // fetch IC50; item: COc1ncc(F)cc1CNc1ccc(Cc2c[nH]c3ncc(C)cc23)c(F)n1 [PLX-5622] ; system: Mitogen-activated protein kinase 12 (Homo sapiens, UniProt P53778)
OUT: > 1000 nM
